Source listed as patent US8541418B2.

molecular target: PLK1 (Homo sapiens); assay: PLK TR-FRET peptide assay, PLK1; type: biochemical; conditions: GST-PLK1, 60 min reaction
Sequence (P53350 whole entry): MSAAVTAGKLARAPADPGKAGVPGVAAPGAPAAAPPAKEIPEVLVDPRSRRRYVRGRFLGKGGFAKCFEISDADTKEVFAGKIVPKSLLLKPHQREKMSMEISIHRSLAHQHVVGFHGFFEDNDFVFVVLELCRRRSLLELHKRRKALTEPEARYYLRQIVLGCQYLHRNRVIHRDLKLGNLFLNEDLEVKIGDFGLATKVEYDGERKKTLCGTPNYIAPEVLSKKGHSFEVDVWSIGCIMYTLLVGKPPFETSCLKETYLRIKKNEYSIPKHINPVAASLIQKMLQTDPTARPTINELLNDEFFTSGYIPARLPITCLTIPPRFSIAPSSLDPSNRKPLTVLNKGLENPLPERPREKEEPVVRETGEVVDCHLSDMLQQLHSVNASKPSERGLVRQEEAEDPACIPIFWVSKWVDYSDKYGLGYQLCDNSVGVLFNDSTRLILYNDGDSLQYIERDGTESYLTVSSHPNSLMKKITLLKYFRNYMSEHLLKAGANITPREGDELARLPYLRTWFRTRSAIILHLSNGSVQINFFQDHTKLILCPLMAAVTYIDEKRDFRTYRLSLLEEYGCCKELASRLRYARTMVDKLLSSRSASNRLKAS
Reported IC50 values for the following molecules.

[2H]C([2H])([2H])N1C(=O)C(C([2H])([2H])C([2H])([2H])[2H])N(C([2H])(C([2H])([2H])[2H])C([2H])([2H])[2H])c2nc(-n3ccnc3-c3nccs3)ncc21 (stereo not shown) [Example 158]: 1 to 10 µM
CC[C@@H]1C(=O)N(C)c2cnc(-c3ccncc3CNC(=O)c3ccccc3)nc2N1C(C)C [Example 130]: > 50 µM

Bench note, PLK1 (Homo sapiens): CN1C(=O)C2(CC(F)(F)F)CCCN2c2nc(-n3ccnc3)ncc21 (stereo not shown) [Example 329] , IC50 reads 10 to 50 µM

Bench note, PLK1 (Homo sapiens): CC[C@@H]1C(=O)N(C)c2cnc(-n3ccnc3-c3cnccn3)nc2N1C1CC1 [Example 141] , IC50 reads > 50 µM

Bench note, PLK1 (Homo sapiens): CC[C@@H]1C(=O)N(C)c2cnc(-n3ccnc3-n3cccn3)nc2N1C1CCCC1 [Example 89] , IC50 reads < 1 µM

Bench note, PLK1 (Homo sapiens): CC[C@@H]1C(=O)N(C)c2cnc(-n3ccnc3-c3ccccc3)nc2N1C(C)C1CC1 (stereo partly shown) [Example 350] , IC50 reads < 1 µM

Bench note, PLK1 (Homo sapiens): CC[C@@]12CCCN1c1nc(-n3ccnc3-c3cnc4ccccc4c3)ncc1N(C)C2=O [Example 241] , IC50 reads 10 to 50 µM
